Sourced from the nanobody polyreactivity screen of Harvey et al. (2022)

# Test name: yeast display, Sf9 membrane polyspecificity reagent, FACS + sequencing; frameworks hold sequencing errors
Quantity name: polyreactivity (PSR sort gate)

* QVQLVESGGGLVQAGGSLRLSCAASGRTFLYYAMGWDRPAPGKERELVAAITRGGGSTYYADSVKGRFTISRDNAKNTVYLPMNSLKPEDTAVYYCAVEYRVDYYVEYDYWGQGTQVTVSS | high polyreactivity
* QVQLVESGGGLVHAGGSLRLSCAASGRIFTYNAMGWYRQAPGKERELVAAISTGGSTNYADSVKGRFTISRDNAKNTVYLQMNSLKPEDTAVYYCARRWWPTYDYWGQGTQVTVSS | high polyreactivity

----------
# Test name: yeast display, Sf9 membrane polyspecificity reagent, FACS + sequencing; frameworks hold sequencing errors
Quantity name: polyreactivity (PSR sort gate)

• QVQLVESGGGLVQAGGSLRISCAPSGIIFYQNTMGWYRQAPGKERELVATITKRGGSSYYADSVKGRFTISRDNAKNTVYLQMNSLKPEDTAVYYCNAAKYAASYIGYGYWGQGTQVTVSS = high polyreactivity
• QVQLVESGGGLVQAGGSLRLSCAASGLIFPANAMGWYRPAPGKERELVAAISWRGSSTYYADSVKGRFTISRDNAKNTVYLQMNSLKPEDTAVYYCNVYVRSGSLRDIGYKYDYWGQGTQVTVSS = high polyreactivity
• QVQLVESGGGLFQAGGSLRLTCAASGSTISDYAIGWYRQAPGKERELVAAISTRGGSTYYADSVKGRFTISRDNAKNTVYLQMNSLKPEDTAVYYCAKGGYVPKLEYWGQGTQVTVSS = high polyreactivity
• QVQLVETGGGLVQAGGSLRLSCAASGSTFYPTYAMGWYRQAPGKERELVATITGSGGSTYYADSVKGRFTISRDNAKNTVYLKMNSLKPEDTAVYYCAADRWYSRYTRYGYWGQGTQVTVSS = low polyreactivity
• QVQLVESGGGLVQAGGSLRLSCAASGRTFDTNPMGWYRQAPGKERELVAVITARGGNTSYADSVKGRFTISRDNAKNTVYLQMNSLKPEDTAVYYCAARVYRAPWTYEEGNYWGQGTQVTVSS = low polyreactivity
• QVQLVESGGGLVQAGGSLRLSCAGSGSTFDSYAMGWYRQAPGKERELVAAITRSDASTYYADSVKGRFTISRDNAKNTVYLQMNSLKPEDTAVYYCAADTSLVYYGGDWEYYYWGQGTQVTVSS = low polyreactivity
• QVQLVETGGGLVQAGGSLRLSCAPSGFTFRRNAMGWYRQAPGKERELVAVITSSARTNYADSVKGRFTISRDNAKNTVYLQMNSLKPEDTAVYYCAARYHYGVWRERHGYWGQGTQVTVSS = high polyreactivity
• QVQLVESGRGLVQAGGSLRLSCAASGSTFNINAMGWYRQAPGKERELVAAISWSGDITYYADSVKGRFTISRDNAKNTVYLQMNSLKPEDTAVYYCNTDDPGNYWYAEYDYWGQGTQVTVSS = low polyreactivity
• QVHLVESGGGLVQAGGSLRLSCAASGSIFYYNAMGSYRHAPGKERELVAAINWSGDRTYYADSVKGRFTISRDNAKNTVYLQMNSLKPEYTAVYYCAATAWPGRYWRQEVDYWGQGTQVTVSS = high polyreactivity
• QVQLVESGGGLVQAGGSLRLSCAASGLTFRSYSMGWYRQAPGKEREFVAAITGSGDTTYYADSVKGRFTISRDNAKNTVYLQMNSLKPEDTAVYYCNADRDYLWITLYEYWGQGTQVTVSS = high polyreactivity
• QVQLVESGGGLFQAGGSLRLSCAASGSTFHYNNMGWYRQAPGKERELVAAISWLGDPTYYADSVKGRFTISRDNAKNTVYLQMNSLKPEDTSVYFCNAVRLSRYRPNPFGYGHWGQGTQVTVSS = high polyreactivity
